test system: bcrp-overexpressing line MDA-MB-231/bcrp; conditions: 72 hours, EZ4U MTT
recordedMetric: pIC50
Give bare numbers, as −log10 of the molar value.

Quick check: pIC50 of `[Ga+3].[O-]c1cccc2cccnc12.[O-]c1cccc2cccnc12.[O-]c1cccc2cccnc12` ?
5.74

----------
tested on: human breast cancer cell line MX-1; test: ATCC MTT Cell Proliferation Assay, MX-1; type: cell-based; conditions: Homo sapiens, MX-1, 72 hours
recordedMetric: pIC50
Answers are plain numbers, as −log10 of the molar value.

Which pIC50 is reported with human breast cancer cell line MX-1 for this entry: O=c1[nH]cc(F)c(=O)[nH]1 [5-FU, 5-fluorouracil, reference compound] ?
5.83

----------
Provide the reported IC50 of each item.
System: human lung carcinoma cell line NCI-H322M
Assay: ATCC MTT Cell Proliferation Assay, NCI-H322M
Format: cell-based
Conditions: NCI-H322M (KRAS wild type), same manner as Example 2
Source text: Table 2 summarizes the results.
Answers are plain numbers, in µM.

compound="N.N.[Cl][Pt][Cl] [Cisplatin, cisplatin, reference compound]" recordedmetric=IC50 numericreadout=52.3

Continue with the compound presented below.
What measured IC50 is associated with `[Ga+3].[O-]c1cccc2cccnc12.[O-]c1cccc2cccnc12.[O-]c1cccc2cccnc12` on human lung carcinoma cell line NCI-H322M?
4.95

----------
system: breast cancer cell line MCF-7; test: ATCC MTT Cell Proliferation Assay, MCF-7; type: cell-based; conditions: MCF-7, same manner as Example 2
Kindly supply the reported IC50 values for the records listed here.
One number for each entry, in µM.

compound=[Ga+3].[O-]c1cccc2cccnc12.[O-]c1cccc2cccnc12.[O-]c1cccc2cccnc12 recordedmetric=IC50 unitname=µM numericreadout=1.23

Request the reported IC50 associated with N.N.[Cl][Pt][Cl] [Cisplatin, cisplatin, reference compound]
8.01

----------
tested on: human melanoma cell line A375; assay: ATCC MTT Cell Proliferation Assay, A375; details: A375, same manner as Example 2
recordedMetric: IC50 (nM)
Numbers only, in nM.

IC50 of `[Ga+3].[O-]c1cccc2cccnc12.[O-]c1cccc2cccnc12.[O-]c1cccc2cccnc12` on human melanoma cell line A375?
1950
